Tested on: giant foxtail
Assay: Test B pre/postemergence giant foxtail
Type: in vivo, Setaria faberii
Conditions: Rate 500 g/ha, Postemergence; scale 0 to 10, 0 no effect, 10 complete control
reported endpoint: Giant foxtail plant response rating
// response body must contain only the number

# smiles structure, reported endpoint, measured value
data = [
    ("Cc1nn(C)c(C)c1-n1c(=O)on(C(=O)N(c2ccccc2)C(C)C)c1=O", "Giant foxtail plant response rating", 8),
    ("C=CCn1c(=O)on(C(=O)N(c2ccccc2)C(C)C)c1=O", "Giant foxtail plant response rating", 9),
    ("CCCCCC#CCn1c(=O)on(C(=O)N(c2ccc(F)cc2)C(C)C)c1=O", "Giant foxtail plant response rating", 0),
    ("Cc1ccccc1-n1c(=O)on(C(=O)N(c2ccc(N(C)C)cc2)C(C)C)c1=O", "Giant foxtail plant response rating", 0),
    ("CCCn1c(=O)on(C(=O)N(c2ccc(Cl)cc2)C(C)C)c1=O", "Giant foxtail plant response rating", 8),
]

q: Check the records and state Giant foxtail plant response rating for "Cc1ccccc1-n1c(=O)on(C(=O)N(c2ccc(C(C)(C)C)cc2)C(C)C)c1=O"
a: 0

q: Item "CC(C)N(C(=O)n1oc(=O)n(CC(=O)OC(C)(C)C)c1=O)c1ccc(F)cc1" : provide Giant foxtail plant response rating
a: 2

q: Report Giant foxtail plant response rating, nothing else, for this molecule: "CCN(CC)C(=O)n1oc(=O)n(-c2cccc3c2CCCC3)c1=O"
a: 2

The reported numbers originate from patent US6737383B1.
